target: T1, N-Avitagged wt hTEAD4^217-434 (human, UniProt Q15561 217-434, acylated at Cys367 (100%)); experiment: SPR; N-Avitagged hTEAD4^217-434 proteins immobilised on Series S Sensor Chip SA, YAP^50-171 proteins as analyte; Biacore T200; 25°C (298 K); 50 mM HEPES, 100 mM KCl, 0.25 mM TCEP, 1 mM EDTA, 0.05% Tween 20, 0.05% BSA, 2% DMSO, pH 7.4; Kd from equilibrium data (Kd^eq); upper limit for Kd^eq 200 µM; conditions: both partners purified
T1 construct: TEAD4 (TEA/ATTS domain transcription factor 4), human, residues 217-434; held on streptavidin (SA) chips; also called Wild type; source: purified; not shown: Avitag, N-terminal, kept
T1 sequence (Q15561 217-434): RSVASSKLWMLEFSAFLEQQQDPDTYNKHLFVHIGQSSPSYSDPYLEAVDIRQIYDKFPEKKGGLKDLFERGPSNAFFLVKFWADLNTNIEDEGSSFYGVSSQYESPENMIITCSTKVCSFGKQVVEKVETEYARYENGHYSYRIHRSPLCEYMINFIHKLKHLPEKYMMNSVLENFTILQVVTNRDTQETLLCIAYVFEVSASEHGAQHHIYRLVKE
Property name: Kd (µM)

>  <Binder>
wt hYAP^50-171 (domain or fragment, human, UniProt P46937-1 50-171, looked up, YAP (Yes-associated protein), human, residues 50-171 of NM_001130145.2; also called hYAP wt; Wild type; source: E. coli NiCo21 (DE3), purified (HisTrap, tag cleaved by HRV 3C protease, Resource S, Superdex 75); not shown: His6, N-terminal, cleaved) AGHQIVHVRGDSETDLEALFNAVMNPKTANVPQTVPMRLRKLPDSFFKPPEPKSHSRQASTDAGTAGALTPQHVRAHSSPASLQLGAVSPGTLTPTGVVSGPAATPTAQHLRQSSFEIPDDV

>  <Property name>
Kd

>  <Unit annotation>
µM

>  <Test value>
0.018

$$$$
>  <Binder>
hYAP^50-171 Met86Ala (domain or fragment, human, UniProt P46937-1 50-171, looked up, YAP (Yes-associated protein), human, residues 50-171 of NM_001130145.2; also called hYAP Met86Ala; source: E. coli NiCo21 (DE3), purified (HisTrap, tag cleaved by HRV 3C protease, Resource S, Superdex 75); not shown: His6, N-terminal, cleaved) AGHQIVHVRGDSETDLEALFNAVMNPKTANVPQTVPARLRKLPDSFFKPPEPKSHSRQASTDAGTAGALTPQHVRAHSSPASLQLGAVSPGTLTPTGVVSGPAATPTAQHLRQSSFEIPDDV

>  <Property name>
Kd

>  <Unit annotation>
µM

>  <Test value>
2.08

$$$$
>  <Binder>
hYAP^50-171 Phe95Ala (domain or fragment, human, UniProt P46937-1 50-171, looked up, YAP (Yes-associated protein), human, residues 50-171 of NM_001130145.2; also called hYAP Phe95Ala; source: E. coli NiCo21 (DE3), purified (HisTrap, tag cleaved by HRV 3C protease, Resource S, Superdex 75); not shown: His6, N-terminal, cleaved) AGHQIVHVRGDSETDLEALFNAVMNPKTANVPQTVPMRLRKLPDSAFKPPEPKSHSRQASTDAGTAGALTPQHVRAHSSPASLQLGAVSPGTLTPTGVVSGPAATPTAQHLRQSSFEIPDDV

>  <Property name>
Kd

>  <Unit annotation>
µM

>  <Test value>
26

$$$$
>  <Binder>
hYAP^50-171 Ser94Ala (domain or fragment, human, UniProt P46937-1 50-171, looked up, YAP (Yes-associated protein), human, residues 50-171 of NM_001130145.2; also called hYAP Ser94Ala; source: E. coli NiCo21 (DE3), purified (HisTrap, tag cleaved by HRV 3C protease, Resource S, Superdex 75); not shown: His6, N-terminal, cleaved) AGHQIVHVRGDSETDLEALFNAVMNPKTANVPQTVPMRLRKLPDAFFKPPEPKSHSRQASTDAGTAGALTPQHVRAHSSPASLQLGAVSPGTLTPTGVVSGPAATPTAQHLRQSSFEIPDDV

>  <Property name>
Kd

>  <Unit annotation>
µM

>  <Test value>
5.62

$$$$
